test: Identification of antibody-drug conjugate (ADC) payloads which are substrates of ATP-binding cassette drug efflux transporters: ABCB1-HeLa-KB-8-5-11 cell line; settings: KB-8-5-11 (P-gp overexpressing HeLa) viability, CellTiter-Glo, 48 h
Results filed as inconclusive are left out. Activity calls are given as the source filed them. The call rests on the fitted dose curve; in most records, active means well fitted inhibition curve with a large enough effect; inconclusive means small, poorly fitted or top-dose-only effect; inactive means flat fitted curve, though single readings scatter. Square brackets hold non-standard residues; d marks the D form. Peptide text beside a SMILES is read from it. * marks the point of attachment. Dolaproine = CO[C@@H]([C@@H]1CCCN1)[C@@H](C)C(=O)O; Dil = CC[C@H](C)[C@H](NC)[C@@H](CC(=O)O)OC; X1 = C[C@@H](N*)[C@@H](O)c1ccccc1; NMeV = CN[C@H](C(=O)O)C(C)C
PROPERTY: Potency

| MOLECULE | Potency |
| --- | --- |
| CC[C@H](C)[C@@H]([C@@H](CC(=O)N1CCC[C@H]1[C@H](OC)[C@@H](C)C(=O)N[C@H](C)[C@@H](O)c1ccccc1)OC)N(C)C(=O)[C@@H](NC(=O)[C@H](C(C)C)N(C)C)C(C)C | 52.9 nM (active) |
| COc1cccc2c1C(=O)c1c(O)c3c(c(O)c1C2=O)C[C@@](O)(C(=O)CO)CC3OC1CC(N2CCOC(OC)C2)C(O)C(C)O1 (some centres undefined) | 13.3 nM (active) |
| COc1cc2cc(c1Cl)N(C)C(=O)C[C@H](OC(=O)[C@H](C)N(C)C(=O)CCS)[C@]1(C)OC1[C@H](C)C1C[C@@](O)(NC(=O)O1)[C@H](OC)/C=C/C=C(\C)C2 (some centres undefined) | 106 nM (active) |

Attention now shifts to the item below.
Ask | Need Potency of CC[C@H](C)[C@@H]([C@@H](CC(=O)N1CCC[C@H]1[C@H](OC)[C@@H](C)C(=O)N[C@H](C)[C@@H](O)c1ccccc1)OC)N(C)C(=O)[C@@H](NC(=O)[C@@H](NC)C(C)C)C(C)C (H-[NMeV]V[Dil][Dolaproine]-X1) , thanks.
Reply | 211 nM (active)
